- Target Of Assay: T1, mouse Sortilin Fc fusion protein (mouse; human, UniProt Q6PHU5 74-754)
- T1 construct: whole entry named; also called mSort-Fc
- Assay Method Text: ForteBio, avid;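 further: whole IgG captured on AHQ sensors, then contacted with Sortilin Fc fusion antigen at 100 nM, followed by an off-rate phase in buffer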
Metric: pKd
// pKd is dimensionless: -log10 of concentration (M)

Some binders with recorded pKd:
{"Binder": "S-22 (antibody, V domains shown, IgG) VH: QVQLVQSGAEVKKPGSSVKVSCKASGGTFSSYAISWVRQAPGQGLEWMGGIIPIFGTASYAQKFQGRVTITADESTSTAYMELSSLRSEDTAVYYCARQGRKTGYYYYYGMDVWGQGTTVTVSS VL: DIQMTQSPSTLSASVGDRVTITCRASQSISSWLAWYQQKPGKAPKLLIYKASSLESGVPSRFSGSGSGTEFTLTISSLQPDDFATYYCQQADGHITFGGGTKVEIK", "Reading": 8.95}
{"Binder": "S-61 (antibody, V domains shown, IgG) VH: QVQLQESGPGLVKPSETLSLTCAVSGYSISSGYYWGWIRQPPGKGLEWIGSIYHSGSTYYNPSLKSRVTISVDTSKNQFSLKLSSVTAADTAVYYCARGSPRFYYGSGSYLDLFDIWGQGTMVTVSS VL: EIVMTQSPATLSVSPGERATLSCRASQSVSSNLAWYQQKPGQAPRLLIYGASTRATGIPARFSGSGSGTEFTLTISSLQSEDFAVYYCQEYLNYPITFGGGTKVEIK", "Reading": 8.61}

// next item, pKd requested
# pKd of S-76 (antibody, V domains shown, IgG) VH: QVQLQESGPGLVKPSQTLSLTCTVSGGSISSGGYYWSWIRQHPGKGLEWIGSIYYSGSTYYNPSLKSRVTISVDTSKNQFSLKLSSVTAADTAVYYCARGVGIQQQLVLGFDPWGQGTLVTVSS VL: DIQMTQSPSSLSASVGDRVTITCRASQSISSFLNWYQQKPGKAPKLLISAASSLQSGVPSRFSGSGSGTDFTLTISSLQPEDFATYYCQQSYREPITFGGGTKVEIK = 7.72
